Tested on: SUDHL10
assay-explanation: Induction of caspase-3/7 activity (Caspase-Glo 3/7), SUDHL10
Assay type: cell-based
test-settings: Homo sapiens, SU-DHL10, 3 h, caspase-3/7 induction, SUDHL10 cells, 3 h treatment; median
Excerpt: Induction of Caspase-317 Activity Upon Treatment of Cells with Selected Compounds The BH3-domain of MCL-1 sequesters pro-apoptotic proteins, thereby inhibiting apoptosis. In contrast, MCL-1 inhibitors are expected to antagonize this effect leading to an increase in apoptosis, which can be determined by measuring the activity of caspase-3/7. […] For the evaluation of the results, the background measured with “medium-only” was subtracted from all other values. […]
Listed below: EC50 values for each entry.
Write it as a number; the unit µM goes unstated.

Cc1nn(C)c2c1-c1cccc3c(CCCOc4cccc5ccccc45)c(C(=O)O)n(c13)CCCCCN(C)C2 [Example 237] :: 15.7
CN(C)S(=O)(=O)N1CCN(c2ccc(OCc3nn(C)c4c3-c3cccc5c(CCCOc6cccc7ccccc67)c(C(=O)O)n(c35)CCCCOC4)cc2)CC1 (racemic) [Example 1-18] :: 1.94
COCCn1nc2c(c1C)-c1cccc3c(CCCOc4cccc5ccccc45)c(C(=O)O)n(c13)C/C=C\COC2 (racemic) [Example 071] :: 11.1

Next, consider the following compound.
# lookup: EC50 of Cn1nc(CO)c2c1COCCCCn1c(C(=O)O)c(CCCOc3cccc4ccccc34)c3cccc-2c31 (racemic) [Example 1-95]
22.7
